Reference for the values: PubChem BioAssay

test system: Noggin (protein binding on small-molecule microarray); assay: small molecules binding Noggin protein – biochemical, 635/667 nm fluorescence, primary screen (AID 1095); conditions: 635 nm fluorescence, higher = more signal;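 note: score merges 667 nm feature fluorescence with signal to noise over triplicate slides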
REPORTED METRIC: composite z-score

COMPOUND	TARGET DESC	REPORTED METRIC	VAL
CO[C@H]1O[C@H](CO)[C@@H](OC(=O)Nc2ccccc2)[C@H](OC(=O)Nc2ccccc2)[C@H]1OC(=O)Nc1ccccc1	Noggin (protein binding on small-molecule microarray)	composite z-score	0.772
COC(=O)C(CC#Cc1ccc2c(c1)[C@]1(C(=O)N2)[C@H](C(=O)N2CCc3cc(OC)c(OC)cc3C2)[C@H]2C(=O)O[C@H](c3ccccc3)[C@H](c3ccccc3)N2[C@@H]1c1ccccc1OCCO)C(=O)OC	Noggin (protein binding on small-molecule microarray)	composite z-score	1.36
CN(C)CCCNC(=O)[C@@H]1c2ccccc2C(=O)N(Cc2ccccc2C(F)(F)F)[C@H]1c1ccc(CO)cc1	Noggin (protein binding on small-molecule microarray)	composite z-score	-0.396
O=C1C2C=CC(C(O)c3c(F)cccc3Cl)N(Nc3ccc([N+](=O)[O-])cc3)C2C(=O)N1c1ccccc1 (centres undefined)	Noggin (protein binding on small-molecule microarray)	composite z-score	0.432

----------
The compounds listed here are annotated with their composite z-score.
system: Lefty1; assay: Lefty1 protein binding to printed compounds – biochemical, small-molecule microarray, 635/667 nm fluorescence, primary screen (AID 1139); conditions: fluorescence 635/667, higher = more signal

COMPOUND	composite z-score
CC(C)NC(=O)[C@@H]1c2ccccc2C(=O)N(Cc2ccc(OC(F)(F)F)cc2)[C@H]1c1ccc(CO)cc1	0.868
CCCC#C[Si](O[C@H](CC)c1cn(Cc2ccccc2)nn1)(C(C)C)C(C)C	0.828
CN(C)CCCC[C@@H]1NC(=O)[C@@H]2C[C@H](C(=O)NCCCCCN)[C@H](c3cccc(OCCO)c3)N2C1=O	0.908
COCCCNC(=O)[C@@]1(Sc2ccc(C)cc2)CC(=O)N(Cc2ccccc2C(F)(F)F)[C@@H]1c1ccc(CO)cc1I	-1.78
COc1cc(C(O)C2C=CC3C(=O)N(c4ccccc4)C(=O)C3N2Nc2ccccc2F)cc(OC)c1OC (stereo not given)	0.323
CC(C)=CCCC(C)=CC(O)C1C=CC2C(=O)NC(=O)C2N1Nc1ccccn1 (stereo not given)	1.54
Cc1ccc(F)cc1S(=O)(=O)N[C@H]1CCN(Cc2ccc(OC(C)C)cc2)C1	1.1
NC(=O)N1C(=O)C2C(C1=O)C1C=C(CCCO)C2C(c2ccc(CN3CCCC3)cc2)N1Cc1sc2ccccc2c1Cl (stereo not given)	-0.131
CCOC(=O)C1=CC[C@@H](c2ccccc2)N(S(=O)(=O)c2ccc(C)cc2)[C@H]1c1ccccc1I	-0.163
COCCOC(=O)N1C(=O)[C@@]2(c3cc(C#CCC(C(=O)OC)C(=O)OC)ccc31)[C@H](c1ccc(O)cc1)N1[C@H](c3ccccc3)[C@H](c3ccccc3)OC(=O)[C@H]1[C@@H]2C(=O)Nc1nc2ccccc2s1	1.44
COC(=O)C(CC#Cc1ccc2c(c1)[C@]1(C(=O)N2)[C@H](c2ccc(OCCO)cc2)N2[C@H](c3ccccc3)[C@H](c3ccccc3)OC(=O)[C@H]2[C@@H]1C(=O)N1CCCCCCC1)C(=O)OC	1.24
COC(=O)[C@H](Cc1ccccc1)N1CC2=CCCC=C[C@@H]2[C@H]1[C@H](O)Cc1ccccc1	0.273
COCCCN1C(=O)[C@@]2(c3ccc([N+](=O)[O-])cc3)CC(=O)N(CC34CC5CC(CC(C5)C3)C4)[C@@H]2c2ccc(CO)cc21	0.739
C=C(COC)/C(=C/C[C@H](OC(C)=O)c1ccccc1OCCO)c1cc(C(=O)OC)ccc1OC	0.726
Cc1ccc(S[C@]2(C(=O)NCCCN(C)C)CC(=O)N(Cc3ccccc3C(F)(F)F)[C@@H]2c2ccc(CO)cc2I)cc1	-1.32

----------
test: JC-1 mitochondrial signal, unstimulated HepG2 cells – cell-based, JC-1 fluorescence, 24 h, 100 nL compound, profiling panel (AID 1167); conditions: HepG2 mitochondrial potential, higher = more signal; note: test concentration not given here

MOLECULE	z-score
CCOC(=O)c1cn(C[C@H](Cc2ccccc2)NC(=O)N[C@H](CO)CCc2oc(C(C)=O)c(C(=O)OC)c2C(=O)OC)nn1	-1
CC(=O)c1ccc(C(O)C2C=CC3C(=O)N(c4ccccc4)C(=O)C3N2Nc2ccc(C(C)C)cc2)cc1 (configuration not stated)	-2.03
CCCC=C(CCC)[C@@H](NC(=O)c1ccc(C(F)(F)F)cc1)c1ccc(C(F)(F)F)cc1	4.85
NC(=O)N1C(=O)C2C(C1=O)C1C=C(CCCO)C2C(C2CC2)N1Cc1sc2ccccc2c1Cl (configuration not stated)	0.709
C=CCOC(=O)[C@@H]1[C@H]2C(=O)O[C@H](c3ccccc3)[C@H](c3ccccc3)N2[C@H](c2ccc(OCCOC(=O)[C@H]3C[C@H]4C(=O)N[C@@H](CCCCN(C)C)C(=O)N4[C@H]3c3ccc(O)cc3)cc2)[C@@]12C(=O)Nc1ccc(I)cc12	0.309
CC(C)(C)OC(=O)CC[C@@]1(C(=O)NCCN2CCOCC2)N=C(c2ccc(OCCCO)cc2)O[C@@H]1c1ccccc1CN=[N+]=[N-]	0.777
CC(C)[Si](C#CCCc1ccccc1)(O[C@H](c1ccccc1)c1cn(Cc2ccccc2)nn1)C(C)C	0.907

----------
tested on: Chordin-like protein 2 (CHRDL2); assay: compounds binding chordin-like 2 – biochemical, small-molecule microarray, 635 nm fluorescence, primary screen (AID 1126); conditions: fluorescence 635 nm, higher = more signal;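 note: printed compound slides probed with Chrdl2 protein at 4 µg/mL for 1 h at 4 C; score merges 667 nm emission intensity with signal to noise over three replicate slides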

COMPOUND	composite z-score
CCCN1C(=O)[C@]2(CCC(=O)OC(C)(C)C)N=C(c3ccc(OCCCO)cc3)O[C@@H]2c2ccccc21	0.405
CC(C)(C)N1CC=CC23O[C@@H]4/C=C\CCCOC(=O)C4[C@H]2C(=O)N(CCCCCO)[C@@H]3C1=O (stereo partly specified)	-1.46
CC(C)C[C@@H]1NC(=O)[C@@]23C(=O)N[C@@H](Cc4ccccc4)C2[C@H](C)[C@@]2(C)O[C@H]2C3/C=C/C/C=C\CNC(=O)CNC1=O (stereo partly specified)	0.322
COc1ccc(CCNC(=O)[C@@H]2c3ccccc3C(=O)N(Cc3ccccc3OC)[C@H]2c2ccc(CO)cc2)cc1	-0.246
C=CCOC(=O)[C@H]1[C@@H]2C(=O)O[C@@H](c3ccccc3)[C@@H](c3ccccc3)N2[C@@H](c2ccc(OCCOC(=O)[C@@H]3C[C@@H]4C(=O)N[C@@H](CCCC[N+](C)(C)C)C(=O)N4[C@@H]3c3ccc(O)cc3)cc2)[C@]12C(=O)Nc1ccc(I)cc12	1.14
CN(C)C(=O)[C@@]1(Cc2ccccc2CN=[N+]=[N-])COC(c2ccc(OCCCO)cc2)=N1	-0.781

----------
experiment: changes in parasitized red cell lysis, either direction – P. falciparum Indochina, OD700, 3 h, PSAC antagonist project, primary screen (AID 1156); conditions: P. falciparum-infected erythrocytes, osmotic lysis, higher = more signal, called active from +8 up or from −8 down
Active and inactive are the calls of the source.
The molecules listed here are annotated with their z-score.
REPORTED METRIC: z-score

                                    molecule  reported_metric                val
 0  COCCOC(=O)N1C(=O)[C@@]2(c3cc(C#CCCO)ccc31)[C@H](c1ccccc1OCCO)N1[C@H](c3ccccc3)[C@H](c3ccccc3)OC(=O)[C@H]1[C@@H]2C(N)=O          z-score   0.633 (inactive)
 1  COc1ccc([Si](C)(C)[C@H]2[C@H](CCO)O[C@@]3(C(=O)N(Cc4cccc(N5C(=O)c6ccccc6Oc6ccccc65)c4)c4ccccc43)[C@@H]2C)cc1          z-score   0.979 (inactive)
 2  [N-]=[N+]=Nc1ccccc1C[C@@]1(C(=O)NCc2ccccc2)N=C(c2ccc(OCCCO)cc2)O[C@@H]1c1ccccc1N=[N+]=[N-]          z-score    2.08 (inactive)
 3  COC(=O)c1cccc([C@H]2OC(=CC(=O)OC(C)C)C[C@@H](c3cccc(C(=O)OC)c3)O2)c1          z-score   0.487 (inactive)
 4  C=C(CCCC)C(=O)CC[C@H](OC(=O)c1ccccc1-c1ccccc1C(=O)O)c1ccc(OCCO)cc1          z-score    1.49 (inactive)
 5  COC(=O)[C@@]1(Cc2ccc(OC)cc2)[C@H]2c3cc(C(=O)N4CCCC4)n(Cc4ccc(Cl)c(C(F)(F)F)c4)c3C[C@H]2CN1C(=O)c1ccccc1          z-score  -0.397 (inactive)
 6  CC(C)(C)N1CC=CC23O[C@@H]4/C=C\CCCOC(=O)C4[C@H]2C(=O)N(CCCO)[C@@H]3C1=O (some centres undefined)          z-score  -0.772 (inactive)
 7  C=C(CCCC)C(=O)CC[C@@H](OC(=O)c1ccccc1-c1ccccc1C(=O)O)c1ccccc1OCCO          z-score  -0.138 (inactive)
 8  C=CCNC(=O)[C@H]1[C@@H]2C(=O)O[C@@H](c3ccccc3)[C@@H](c3ccccc3)N2[C@@H](c2ccc(OCCO)cc2)[C@]12C(=O)Nc1ccccc12          z-score  -0.444 (inactive)
 9  COc1ccc(C(O)C2C=CC3C(=O)N(c4ccccc4)C(=O)C3N2Nc2ccc([N+](=O)[O-])cc2)c2ccccc12 (centres undefined)          z-score   0.722 (inactive)
10  COc1ccc(C(=O)Nc2ccc3c(c2)[C@@]2(O[C@H](CCO)[C@@H]([Si](C)(C)c4ccc(OC)cc4)[C@@H]2C)C(=O)N3Cc2ccccc2)cc1          z-score   0.768 (inactive)
11  Cc1ccc(F)cc1S(=O)(=O)N[C@H]1CCN(Cc2ccc(OC(C)C)cc2)C1          z-score   0.183 (inactive)
12  CC(C)C[C@@H]1NC(=O)[C@@H]2C[C@H](C(=O)NCCCCCCNC(=O)CS)[C@H](c3cccc(OCCO)c3)N2C1=O          z-score    1.01 (inactive)
13  Cc1ccc(S[C@]2(C(=O)NCc3ccccc3)CC(=O)N(Cc3ccccc3C(F)(F)F)[C@@H]2c2ccc(CO)cc2)cc1          z-score   -1.37 (inactive)
